Test system: M. catarrhalis ATCC 0324

| compound | MIC |
| --- | --- |
| CC[C@H]1OC(=O)[C@H](C)[C@@H](OC2C[C@@](C)(OC)[C@@H](OC(=O)CCOCCOCCNc3cc4c5c(c3)c(=O)c(C(=O)O)cn5CCC4)[C@H](C)O2)[C@H](C)[C@@H](O[C@@H]2O[C@H](C)C[C@H](N(C)C)[C@H]2O)[C@](C)(O)C[C@@H](C)CN(C)[C@H](C)[C@@H](O)[C@]1(C)O (stereo partly shown) | ≤ 2 µg/mL |

====

Test system: S. aureus Smith ATCC 0329
assay summary: MIC, standard microtiter broth serial dilution test
Type: cell-based
study conditions: Staphylococcus aureus, ATCC0329
measured quantity: MIC

| compound | measured quantity | result |
| --- | --- | --- |
| CC[C@H]1OC(=O)[C@H](C)[C@@H](OC2C[C@@](C)(OC)[C@@H](OC(=O)CCOCCOCCOc3ccc4c(=O)c(C(=O)O)cn(C5CC5)c4c3)[C@H](C)O2)[C@H](C)[C@@H](OC2O[C@H](C)C[C@H](N(C)C)[C@H]2O)[C@](C)(O)C[C@@H](C)CN(C)[C@H](C)[C@@H](O)[C@]1(C)O (some centres unmarked) | MIC | ≤ 1 µg/mL |
| CC[C@H]1OC(=O)[C@H](C)[C@@H](O[C@H]2C[C@@](C)(OC)[C@@H](OC(=O)CCOCCOCCNc3ccc4c(c3)c(=O)c(C(=O)O)cn4CC)[C@H](C)O2)[C@H](C)[C@@H](O[C@@H]2O[C@H](C)C[C@H](N(C)C)[C@H]2O)[C@](C)(O)C[C@@H](C)CN(C)[C@H](C)[C@@H](O)[C@]1(C)O | MIC | ≤ 1 µg/mL |

====

Observed MIC, system M. catarrhalis ATCC 0324.
measured quantity: MIC

| compound | subject of test | result |
| --- | --- | --- |
| CC[C@H]1OC(=O)[C@H](C)[C@@H](O[C@H]2C[C@@](C)(OC)[C@@H](OC(=O)CCOCCOCCOc3cc4c(=O)c(C(=O)O)cn(C5CC5)c4cc3Cl)[C@H](C)O2)[C@H](C)[C@@H](O[C@@H]2O[C@H](C)C[C@H](N(C)C)[C@H]2O)[C@](C)(O)C[C@@H](C)CN(C)[C@H](C)[C@@H](O)[C@]1(C)O [Example 55] | M. catarrhalis ATCC 0324 | ≤ 2 µg/mL |
| CC[C@H]1OC(=O)[C@H](C)[C@@H](OC2C[C@@](C)(OC)[C@@H](OC(=O)CCOCCOCCOc3ccc4c(=O)c(C(=O)O)cn(C5CC5)c4c3)[C@H](C)O2)[C@H](C)[C@@H](OC2O[C@H](C)C[C@H](N(C)C)[C@H]2O)[C@](C)(O)C[C@@H](C)CN(C)[C@H](C)[C@@H](O)[C@]1(C)O (stereo partly drawn) [Example 35] | M. catarrhalis ATCC 0324 | ≤ 2 µg/mL |
| CCO/N=C1\[C@H](C)C[C@@](C)(O)[C@H](O[C@@H]2O[C@H](C)C[C@H](N(C)C)[C@H]2O)[C@@H](C)[C@H](OC2C[C@@](C)(OC)[C@@H](OC(=O)CCOCCOCCNc3cc4c(=O)c(C(=O)O)cn(C5CC5)c4cc3Cl)[C@H](C)O2)[C@@H](C)C(=O)O[C@H](CC)[C@@](C)(O)[C@H](O)[C@H]1C (stereo partly drawn) [Example 19] | M. catarrhalis ATCC 0324 | ≤ 2 µg/mL |

====

Observed MIC, system M. catarrhalis ATCC 0324.

| compound | subject of test | MIC |
| --- | --- | --- |
| CCOC(=O)c1cn(CC)c2ccc(C#CCN3CCN(CCC(=O)O[C@H]4[C@H](C)OC(O[C@H]5[C@H](C)[C@@H](OC6O[C@H](C)C[C@H](N(C)C)[C@H]6O)[C@](C)(OC)C[C@@H](C)C(=O)[C@H](C)[C@@H](O)[C@](C)(O)[C@@H](CC)OC(=O)[C@@H]5C)C[C@@]4(C)OC)CC3)cc2c1=O (stereo partly drawn) | M. catarrhalis ATCC 0324 | ≤ 2 µg/mL |
| CC[C@H]1OC(=O)[C@H](C)[C@@H](O[C@H]2C[C@@](C)(OC)[C@@H](OC(=O)CCOCCOCCNc3cc4c(=O)c(C(=O)O)cn(C5CC5)c4cc3N(C)C)[C@H](C)O2)[C@H](C)[C@@H](OC2O[C@H](C)C[C@H](N(C)C)[C@H]2O)[C@](C)(O)C[C@@H](C)CN(C)[C@H](C)[C@@H](O)[C@]1(C)O (stereo partly drawn) | M. catarrhalis ATCC 0324 | ≤ 2 µg/mL |
| CC[C@H]1OC(=O)[C@H](C)[C@@H](O[C@H]2C[C@@](C)(OC)[C@@H](OC(=O)CCOCCOCCNc3cc4c(=O)c(C(=O)O)cn(C5CC5)c4cc3Cl)[C@H](C)O2)[C@H](C)[C@@H](O[C@@H]2O[C@H](C)C[C@H](N(C)C)[C@H]2O)[C@](C)(OC)C[C@@H](C)C(=O)[C@H](C)[C@H]2NC(=O)O[C@@]21C | M. catarrhalis ATCC 0324 | ≤ 2 µg/mL |

====

Observed MIC, system S. pyogenes 0542.

| compound | MIC |
| --- | --- |
| CC[C@H]1OC(=O)[C@H](C)[C@@H](O[C@H]2C[C@@](C)(OC)[C@@H](OC(=O)CCOCCOCCOc3cc4c(=O)c(C(=O)O)cn(C5CC5)c4cc3Cl)[C@H](C)O2)[C@H](C)[C@@H](O[C@@H]2O[C@H](C)C[C@H](N(C)C)[C@H]2O)[C@](C)(O)C[C@@H](C)CN(C)[C@H](C)[C@@H](O)[C@]1(C)O [Example 55] | ≤ 1 µg/mL |
| CC[C@H]1OC(=O)[C@H](C)[C@@H](OC2C[C@@](C)(OC)[C@@H](OC(=O)CCOCCOCCOc3ccc4c(=O)c(C(=O)O)cn(C5CC5)c4c3)[C@H](C)O2)[C@H](C)[C@@H](O[C@@H]2O[C@H](C)C[C@H](N(C)C)[C@H]2O)[C@](C)(OC)C[C@@H](C)C(=O)[C@H](C)[C@@H](O)[C@]1(C)O (stereo partly drawn) [Example 38] | ≤ 1 µg/mL |
| CC[C@H]1OC(=O)[C@H](C)[C@@H](O[C@H]2C[C@@](C)(OC)[C@@H](OC(=O)CCOCCOCCNc3ccc4c(c3)c(=O)c(C(=O)O)cn4CC)[C@H](C)O2)[C@H](C)[C@@H](O[C@@H]2O[C@H](C)C[C@H](N(C)C)[C@H]2O)[C@](C)(O)C[C@@H](C)CN(C)[C@H](C)[C@@H](O)[C@]1(C)O [Example 30] | ≤ 1 µg/mL |

====

Quick reference for MIC among some compounds
System: M. catarrhalis ATCC 0324

| smiles representation | subject of test | MIC |
| --- | --- | --- |
| CC[C@H]1OC(=O)[C@H](C)[C@@H](O[C@H]2C[C@@](C)(OC)[C@@H](OC(=O)CCNCCOCCOCC#Cc3ccc4c(c3)c(=O)c(C(=O)O)cn4CC)[C@H](C)O2)[C@H](C)[C@@H](O[C@@H]2O[C@H](C)C[C@H](N(C)C)[C@H]2O)[C@](C)(O)C[C@@H](C)CN(C)[C@H](C)[C@@H](O)[C@]1(C)O | M. catarrhalis ATCC 0324 | ≤ 2 µg/mL |
| CC[C@H]1OC(=O)[C@H](C)[C@@H](O[C@H]2C[C@@](C)(OC)[C@@H](OC(=O)CCOCCOCCNc3cc4c(cc3F)c(=O)c(C(=O)O)cn4C3CC3)[C@H](C)O2)[C@H](C)[C@@H](O[C@@H]2O[C@H](C)C[C@H](N(C)C)[C@H]2O)[C@](C)(OC)C[C@@H](C)C(=O)[C@H](C)[C@@H](O)[C@]1(C)O | M. catarrhalis ATCC 0324 | ≤ 2 µg/mL |
| CC[C@H]1OC(=O)[C@H](C)[C@@H](O[C@H]2C[C@@](C)(OC)[C@@H](OC(=O)CCN3CCN(CC#Cc4ccc5c(c4)c(=O)c(C(=O)O)cn5CC)CC3)[C@H](C)O2)[C@H](C)[C@@H](O[C@@H]2O[C@H](C)C[C@H](N(C)C)[C@H]2O)[C@](C)(O)C[C@@H](C)CN(C)[C@H](C)[C@@H](OC)[C@]1(C)O | M. catarrhalis ATCC 0324 | ≤ 2 µg/mL |

====

Observed MIC, system S. pyogenes 0542.

| compound | MIC |
| --- | --- |
| CC[C@H]1OC(=O)[C@H](C)[C@@H](OC2C[C@@](C)(OC)[C@@H](OC(=O)CCNCCOCCCc3ccc4c(c3)c(=O)c(C(=O)O)cn4CC)[C@H](C)O2)[C@H](C)[C@@H](OC2O[C@H](C)C[C@H](N(C)C)[C@H]2O)[C@](C)(OC)C[C@@H](C)C(=O)[C@H](C)[C@@H](O)[C@]1(C)O (stereo partly drawn) [Example 37] | ≤ 1 µg/mL |
| CC[C@H]1OC(=O)[C@H](C)[C@@H](O[C@H]2C[C@@](C)(OC)[C@@H](OC(=O)CCN3CCN(CCCc4ccc5c(c4)c(=O)c(C(=O)O)cn5CC)CC3)[C@H](C)O2)[C@H](C)[C@@H](O[C@@H]2O[C@H](C)C[C@H](N(C)C)[C@H]2O)[C@](C)(O)C[C@@H](C)CN(C)[C@H](C)[C@@H](OC)[C@]1(C)O [Example 5] | ≤ 1 µg/mL |
| CC[C@H]1OC(=O)[C@H](C)[C@@H](O[C@H]2C[C@@](C)(OC)[C@@H](OC(=O)CCOCCOCCNc3cc4c(=O)c(C(=O)O)cn(C5CC5)c4cc3Cl)[C@H](C)O2)[C@H](C)[C@@H](O[C@@H]2O[C@H](C)C[C@H](N(C)C)[C@H]2O)[C@](C)(OC)C[C@@H](C)C(=O)[C@H](C)[C@@H](O)[C@]1(C)O [Example 7] | ≤ 1 µg/mL |

Data credit: patent US20080255060A1
